- tested-on: α-Glucosidase from Saccharomyces cerevisiae (EC 3.2.1.20) (Saccharomyces cerevisiae)
- Sequence (P53341 whole entry): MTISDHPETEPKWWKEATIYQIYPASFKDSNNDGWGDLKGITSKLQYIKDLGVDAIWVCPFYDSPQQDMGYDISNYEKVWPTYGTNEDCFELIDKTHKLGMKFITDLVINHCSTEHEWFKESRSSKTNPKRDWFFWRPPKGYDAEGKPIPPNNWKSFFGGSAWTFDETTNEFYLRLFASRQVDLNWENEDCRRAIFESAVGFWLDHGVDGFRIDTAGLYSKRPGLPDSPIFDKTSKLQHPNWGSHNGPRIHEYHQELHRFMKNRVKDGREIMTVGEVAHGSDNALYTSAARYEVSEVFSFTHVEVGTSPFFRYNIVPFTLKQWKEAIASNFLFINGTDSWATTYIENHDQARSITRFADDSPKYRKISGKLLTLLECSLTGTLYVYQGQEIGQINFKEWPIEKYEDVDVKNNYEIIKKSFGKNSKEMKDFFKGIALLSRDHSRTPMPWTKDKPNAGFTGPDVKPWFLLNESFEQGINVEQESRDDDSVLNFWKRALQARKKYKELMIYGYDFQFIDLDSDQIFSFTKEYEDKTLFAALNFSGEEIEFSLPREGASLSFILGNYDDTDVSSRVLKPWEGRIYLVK
Lab note: compare IC50 with 30 µM, writing fulfilled if less and not fulfilled if equal or more.

{"molecule": "O=C(CCc1ccc(F)cc1)Oc1ccc(-c2cc(=O)c3ccccc3o2)cc1 [Compound 5]", "class": "fulfilled"}
{"molecule": "O=C(CCc1ccc(Br)cc1)Oc1ccc(-c2cc(=O)c3ccccc3o2)cc1 [Compound 4]", "class": "fulfilled"}
{"molecule": "O=C(CCc1ccccc1)Oc1ccc(-c2cc(=O)c3ccccc3o2)cc1 [Compound 1]", "class": "not fulfilled"}
{"molecule": "O=C(CCc1ccc(Cl)cc1)Oc1ccc(-c2cc(=O)c3ccccc3o2)cc1 [Compound 3]", "class": "not fulfilled"}
{"molecule": "O=C(CCc1ccc(C(F)(F)F)cc1)Oc1ccc(-c2cc(=O)c3ccccc3o2)cc1 [Compound 6]", "class": "fulfilled"}

Ask: Please indicate whether the reported IC50 of Cc1ccc(CCC(=O)Oc2ccc(-c3cc(=O)c4ccccc4o3)cc2)cc1 [Compound 2] is strictly below 30 µM.
Reply: fulfilled
